// max activity lookup, one value per entry
Assay: compound activity on host-cell Toxoplasma growth – dose response (AID 1259420);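 further: host cells were HeLa; final incubation lasted 72 hours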
Conditions: Toxoplasma gondii growth in host cells, no IFN-gamma; at 19.5 µM unless noted
Out of some 1,000 compounds screened, about 250 (25%) were called active. About 31% were inconclusive and are not listed. Only a sample is shown. Potency and affinity values are given separately.

Take a look at these entries with their results.
{"Compound": "O=C(CC(F)(F)F)N1C[C@@H]2[C@H](c3ccccc31)[C@H](CO)N2CC1CCOCC1", "max activity": "-6.58% [at 5 µM] (inactive)"}
{"Compound": "CS(=O)(=O)N1CCO[C@@H]2CN(C(=O)Cc3ccccn3)CC[C@H]2C1", "max activity": "-18.9% [at 1.2 µM] (inactive)"}

Quick check: max activity of `N#Cc1ccc(-c2ccc3c(c2)[C@H]2[C@H](CCN2C(=O)C2CCCCC2)[C@@H](CO)N3)cc1` ? -26.1% [at 5 µM] (inactive)

Could you tell me which max activity is on file for COCCC(=O)C1Cc2nc(-c3ccccc3)sc2N1CC1CC1 (centres undefined) ? -9.12% [at 0.3 µM] (inactive)

Which max activity is listed for `COC[C@]12CCC[C@@H]1CN(S(=O)(=O)c1cccc(OC)c1)C2` ? 17.2% (inactive)

Entry `Cc1ccoc1C(=O)N1CC[C@H]2CO[C@@H](CN3CCN(C)CC3)[C@@H]2C1` : reported max activity = ? -13% (inactive)

So what does the record say about max activity for O=C1N(CC2CC2)CCC12CCCN(Cc1cncc(Cl)c1)CC2 (centres undefined) ? -16.7% [at 10 µM] (inactive)

Recorded max activity for `CC1(C)C2CCC1(CS(=O)(=O)O)C(=O)/C2=C\c1ccc(/C=C2/C(=O)C3(CS(=O)(=O)O)CCC2C3(C)C)cc1` , please? 5.44% (inactive)

Could you share which max activity value was measured for `Cc1cccc(-n2ncc3c(NC4CCCCCCCCCCC4)ncnc32)c1` ? 8.82% [at 10 µM] (inactive)

----------
Assay: compound activity on host-cell Toxoplasma growth – dose response (AID 1259420);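 further: host cells were HeLa; final incubation lasted 72 hours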
Conditions: Toxoplasma gondii growth in host cells, no IFN-gamma; at 19.5 µM unless noted
Among all 1,000 compounds or so, about 250 (25%) were called active. Another 31% or so got no clear call; they are omitted. The list is a sample of the results. Results with a measured potency or affinity are listed apart.
Measurement label: max activity (%)
Give your result in % as a bare value.

Some entries whose results are on file:
{"Compound": "N#C[C@H]1[C@H](c2ccc(C#Cc3cccc(F)c3)cc2)[C@@H](CO)N1C(=O)C1CCOCC1", "Endpoint value": 10.6}
{"Compound": "N#C[C@H]1[C@@H](c2ccc(-c3cccnc3)cc2)[C@@H](CO)N1C(=O)Nc1ccc(F)cc1", "Endpoint value": 7.86}
{"Compound": "COc1ccc(-c2ccc([C@H]3[C@H](C#N)N(C(=O)NC(C)C)[C@H]3CO)cc2)cc1", "Endpoint value": 23.7}
{"Compound": "N#C[C@@H]1[C@H](c2ccc(C#Cc3cccc(F)c3)cc2)[C@H](CO)N1C(=O)C1CCOCC1", "Endpoint value": 23.4}

# ---- query compound ----
Which max activity is listed for COc1cccc(-c2ccc(C3[C@@H]4CN(Cc5ccccn5)C[C@H]3N4)cc2)c1 (stereo not given in full) ? 36.5

----------
Test: compound activity on host-cell Toxoplasma growth – dose response (AID 1259420);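 further: host cells were HeLa; final incubation lasted 72 hours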
Conditions: Toxoplasma gondii growth in host cells, no IFN-gamma; at 5 µM
About 250 (25%) of roughly 1,000 compounds were called active. Not shown: some 31% with an inconclusive outcome. The list is a sample of the results. Measured potencies and affinities stand elsewhere.
Measurement label: max activity (%)
Answer in %, number only, no unit symbol.

# count of solved cases: 2
{"Compound": "COc1ccc(C#Cc2ccc([C@@H]3[C@H](CO)N4C(=O)CN(C(=O)NC(C)C)C[C@@H]34)cc2)cc1", "Unit abbreviation": "%", "max activity": -8.81}
{"Compound": "Cc1ccccc1-c1ccc(C2[C@@H]3CN(C(=O)C4CCOCC4)C[C@H]2N3)cc1 (some centres undefined)", "Unit abbreviation": "%", "max activity": -5.78}

What value of max activity has been reported for the following compound? `CN1C(=O)c2cc(NC(=O)c3cccc(F)c3)ccc2OC[C@H]2O[C@@H](CC(=O)NCC3CCCCC3)CC[C@H]21` -19.3

Request the reported max activity associated with `O=C(NCc1cncc2c1CCN(Cc1cccc(F)c1)C2)C1CC1` 9.94

----------
Let's look at some compounds and their measured max activity.
Assay: compound activity on host-cell Toxoplasma growth – dose response (AID 1259420);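 further: host cells were HeLa; final incubation lasted 72 hours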
Details: Toxoplasma gondii growth in host cells, no IFN-gamma; at 19.5 µM unless noted
The whole screen tested about 1,000 compounds, of which about 250 (25%) were called active. Roughly 31% stayed inconclusive and do not appear here. Not all results are given here. Potency and affinity values are given separately.

These recorded examples may help you get a feel for the data.
{"Compound": "COCC1(C(=O)N2CCc3c(nc(-c4ccccc4)[nH]c3=O)C2)CCC1", "max activity": "24.5% (inactive)"}
{"Compound": "OC[C@@H]1[C@@H](c2ccc(C#Cc3ccccc3F)cc2)[C@H]2CN(CC3CCOCC3)CCCCN12", "max activity": "24.4% (inactive)"}
{"Compound": "O=C(C[C@H]1CC[C@H]2[C@@H](COC[C@H](O)CN2S(=O)(=O)c2ccccc2)O1)NCC1CCCCC1", "max activity": "-7.1% [at 0.3 µM] (inactive)"}
{"Compound": "O=C1CNC[C@H]2[C@@H](c3ccc(C#Cc4cccnc4)cc3)[C@@H](CO)N12", "max activity": "-4.61% [at 1.2 µM] (inactive)"}
{"Compound": "O=C(CC1CC1)N[C@H]1CN(C(=O)c2ccoc2)C[C@@H]2CCCO[C@H]21", "max activity": "-10.1% [at 10 µM] (inactive)"}

// returns reported max activity for input COCC1COCCC12CCN(C(=O)c1ccc(C)nc1)CC2 (configuration not stated) 6.91% [at 2.6 µM] (inactive)

Can you share its max activity? I mean this compound: `O=C(c1ccc(F)cc1)N1c2ccccc2Sc2ccc(C(F)(F)F)cc21` 12.1% [at 10 µM] (inactive)

Tell me the measured max activity of Cc1ccc(S(=O)(=O)N2CCC3(CC2)OC(C(=O)N(C)C)Cn2ccnc23)cc1 (configuration not stated) , please. -17% (inactive)

----------
Each record here notes measured max activity.
Assay: compound activity on host-cell Toxoplasma growth – dose response (AID 1259420);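 further: host cells were HeLa; final incubation lasted 72 hours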
Details: Toxoplasma gondii growth in host cells, no IFN-gamma; at 19.5 µM unless noted
The campaign covered roughly 1,000 compounds. About 250 (25%) were called active. Not shown: some 31% with an inconclusive outcome. The list is a sample of the results. Potency and affinity values are given separately.

{"Compound": "O=C(Cc1ccccn1)N1CC(=O)N2[C@H](CO)[C@@H](c3ccc(C#CCC4CCCC4)cc3)[C@H]2C1", "Endpoint value": "20.5% (inactive)"}
{"Compound": "CCc1cnc(N2CCc3cc(C(=O)NCC4CC4)c(N(C)C)nc3CC2)nc1", "Endpoint value": "11.8% [at 0.6 µM] (inactive)"}
{"Compound": "CCC(=O)N1CC(=O)N2[C@@H](CO)[C@@H](c3ccc(C#CCC(C)C)cc3)[C@@H]2C1", "Endpoint value": "8.67% [at 0.3 µM] (inactive)"}

Recorded max activity for `C1=CC[C@H]2CN(c3ncnc4[nH]ccc34)C[C@H]2C1` , please? 15.7% [at 10 µM] (inactive)

Item `O=C(C1CCOCC1)N1CC(=O)N2[C@H](C1)[C@@H](c1ccc(/C=C/c3ccccc3)cc1)[C@@H]2CO` has what recorded max activity? 10.5% [at 0.6 µM] (inactive)

Find the recorded max activity belonging to `O=S1(=O)c2ccccc2OCC2(CCN(Cc3ccccc3)CC2)CN1CC1CC1` and report it. 19.2% (inactive)

I have this compound here, `COc1ccc(S(=O)(=O)N2CCC(c3nc4ccc(-c5ccncc5)cn4n3)CC2)cc1` , and I need its recorded max activity. -32.4% [at 10 µM] (inactive)

I would be grateful if you could share the reported max activity for `COc1cccc(S(=O)(=O)N2CC[C@@H]3[C@H]2c2cc(C#Cc4cccnc4)ccc2N[C@@H]3CO)c1` . 17.4% (inactive)

----------
Test: compound activity on host-cell Toxoplasma growth – dose response (AID 1259420);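 further: host cells were HeLa; final incubation lasted 72 hours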
Conditions: Toxoplasma gondii growth in host cells, no IFN-gamma; at 19.5 µM
Screen size: about 1,000 compounds; about 250 (25%) were called active. Not shown: some 31% with an inconclusive outcome. A selection follows. Potency and affinity values are given separately.
Binary classification by max activity, with 10% as an inclusive lower bound for Condition met; all other cases are Condition not met.

Reference set (3 entries):
{"Molecule": "COc1ccccc1C#Cc1ccc([C@H]2[C@H](CO)N3CCCCN(C(=O)C4CCC4)C[C@@H]23)cc1", "Class name": "Condition not met"}
{"Molecule": "Cn1cnc(S(=O)(=O)N2C[C@@H]3N[C@H](C2)C3c2ccc(-c3ccccc3F)cc2)c1 (stereo partly specified)", "Class name": "Condition met"}
{"Molecule": "O=C(Cc1cccnc1)N1CC(=O)N2[C@H](CO)[C@H](c3ccc(C#CC4CCCCC4)cc3)[C@@H]2C1", "Class name": "Condition not met"}

max activity >= 10% for O=C(O)c1ccc(C2C(=O)NNCC2N2CCCC2)s1 (stereo unspecified) ? Condition met

API: above_or_equal(metric=max activity, cutoff=10%) for item `COc1cccc(S(=O)(=O)N2CCCCN3[C@H](CO)[C@H](c4ccc(C#CCC(C)C)cc4)[C@@H]3C2)c1` Condition not met

API: above_or_equal(metric=max activity, cutoff=10%) for item `OC[C@@H]1[C@@H](c2ccc(-c3cccc(F)c3)cc2)[C@@H]2CN(Cc3cncnc3)CCCCN12` Condition met
